The following are reported IC50 results, target or system binding of RBD to ACE2 (Severe acute respiratory syndrome coronavirus 2).
Record the result as a number with its unit.

Using binding of RBD to ACE2 (Severe acute respiratory syndrome coronavirus 2) as the test system, report measured IC50 of C[C@H]1[C@H](N2CCS(=O)(=O)CC2)O[C@@H]2O[C@@]3(C)CC[C@H]4[C@H](C)CC[C@@H]1[C@@]24OO3 .
63.1 µM

Okay, next one:
Using binding of RBD to ACE2 (Severe acute respiratory syndrome coronavirus 2) as the test system, report measured IC50 of COc1ccc2nc3cc(Cl)ccc3c(Nc3cc(CN4CCCC4)c(O)c(CN4CCCC4)c3)c2n1 .
49.7 µM

* * *

# measured on: SARS-CoV-2 RBD peptide (Severe acute respiratory syndrome coronavirus 2)
# test: biochemical
# Assay type: binding
# assay conditions: KD for RBD
parameter measured: pKd
// pKd here means minus log10 of the molar concentration (mol/L)

Please give measured pKd of the following entry: COc1ccc2nc3cc(Cl)ccc3c(Nc3cc(CN4CCCC4)c(O)c(CN4CCCC4)c3)c2n1
4.24

Okay, next one:
Please give measured pKd of the following entry: C[C@H]1[C@H](N2CCS(=O)(=O)CC2)O[C@@H]2O[C@@]3(C)CC[C@H]4[C@H](C)CC[C@@H]1[C@@]24OO3
6.44

* * *

Overview of reported kon across a group of compounds:
# measured on: ACE2 (Homo sapiens)
# Construct: purchased Sino Biological
# test: Bio-layer interferometry, binding to immobilized ACE2-His
# assay conditions: association rate, bio-layer interferometry; read-out: ACE2 kon
Record the value in M⁻¹ s⁻¹, omitting the unit from your answer.

Please give measured kon of the following entry: COc1cc(/C=C/C(=O)CC(=O)/C=C/c2ccc(O)c(OC)c2)ccc1O
600

Please give measured kon of the following entry: C[C@H]1[C@H](N2CCSCC2)O[C@@H]2O[C@@]3(C)CC[C@H]4[C@H](C)CC[C@@H]1[C@@]24OO3 [Artemiside]
4290

Please give measured kon of the following entry: COc1ccc2nc3cc(Cl)ccc3c(Nc3cc(CN4CCCC4)c(O)c(CN4CCCC4)c3)c2n1
584

Others:
Please give measured kon of the following entry: C=C[C@H]1C[N@@]2CC[C@H]1C[C@H]2[C@H](O)c1ccnc2ccc(OC)cc12
877

Please give measured kon of the following entry: C[C@H]1[C@H](N2CCS(=O)(=O)CC2)O[C@@H]2O[C@@]3(C)CC[C@H]4[C@H](C)CC[C@@H]1[C@@]24OO3
971

* * *

# measured on: ACE2 (Homo sapiens, UniProt Q9BYF1)
# Construct: purchased Sino Biological
# Sequence (Q9BYF1 18-805): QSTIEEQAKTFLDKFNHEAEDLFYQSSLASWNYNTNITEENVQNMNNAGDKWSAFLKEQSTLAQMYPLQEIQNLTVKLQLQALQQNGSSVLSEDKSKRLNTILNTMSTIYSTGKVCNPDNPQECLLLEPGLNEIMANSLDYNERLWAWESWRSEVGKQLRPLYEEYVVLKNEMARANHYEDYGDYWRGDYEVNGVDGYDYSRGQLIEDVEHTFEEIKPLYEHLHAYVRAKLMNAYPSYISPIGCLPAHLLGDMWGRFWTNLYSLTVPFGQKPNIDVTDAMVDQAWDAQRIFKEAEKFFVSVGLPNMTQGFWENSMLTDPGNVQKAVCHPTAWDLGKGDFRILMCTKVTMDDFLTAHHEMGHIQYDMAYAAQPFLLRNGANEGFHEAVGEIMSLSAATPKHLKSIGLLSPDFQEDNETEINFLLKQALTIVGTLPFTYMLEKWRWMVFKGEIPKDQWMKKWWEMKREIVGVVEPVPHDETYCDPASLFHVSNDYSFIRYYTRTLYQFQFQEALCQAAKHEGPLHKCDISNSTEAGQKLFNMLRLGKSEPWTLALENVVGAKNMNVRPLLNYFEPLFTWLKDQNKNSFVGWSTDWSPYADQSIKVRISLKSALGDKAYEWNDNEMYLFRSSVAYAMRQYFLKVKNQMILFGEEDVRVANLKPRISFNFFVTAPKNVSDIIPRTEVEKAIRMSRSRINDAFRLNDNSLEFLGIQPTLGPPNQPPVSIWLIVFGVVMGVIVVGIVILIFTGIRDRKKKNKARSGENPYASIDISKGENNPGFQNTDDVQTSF
# test: Bio-layer interferometry, binding to immobilized ACE2-His
# assay conditions: bio-layer interferometry, 1:1 binding model, KD = kdis/kon
parameter measured: Kd (µM)
Record the value in µM, omitting the unit from your answer.

# example entries with known answers
Please give measured Kd of the following entry: COc1ccc2nc3cc(Cl)ccc3c(Nc3cc(CN4CCCC4)c(O)c(CN4CCCC4)c3)c2n1
51.3

Please give measured Kd of the following entry: C=C[C@H]1C[N@@]2CC[C@H]1C[C@H]2[C@H](O)c1ccnc2ccc(OC)cc12
9.35

Please give measured Kd of the following entry: CN(C)c1ccc2nc3ccc(=[N+](C)C)cc-3sc2c1
475

Others:
Please give measured Kd of the following entry: COc1cc(/C=C/C(=O)CC(=O)/C=C/c2ccc(O)c(OC)c2)ccc1O
20.3

* * *

Overview of reported koff across a group of compounds:
# measured on: ACE2 (Homo sapiens)
# Construct: purchased Sino Biological
# test: Bio-layer interferometry, binding to immobilized ACE2-His
# assay conditions: dissociation rate, bio-layer interferometry; read-out: ACE2 kdis
Record the result as a number with its unit.

Please give measured koff of the following entry: COc1ccc2nc3cc(Cl)ccc3c(Nc3cc(CN4CCCC4)c(O)c(CN4CCCC4)c3)c2n1
0.0299 s⁻¹

Others:
Please give measured koff of the following entry: C[C@H]1[C@H](N2CCSCC2)O[C@@H]2O[C@@]3(C)CC[C@H]4[C@H](C)CC[C@@H]1[C@@]24OO3 [Artemiside]
0.533 s⁻¹

Please give measured koff of the following entry: C=C[C@H]1C[N@@]2CC[C@H]1C[C@H]2[C@H](O)c1ccnc2ccc(OC)cc12
0.00819 s⁻¹

Please give measured koff of the following entry: C[C@H]1[C@H](N2CCS(=O)(=O)CC2)O[C@@H]2O[C@@]3(C)CC[C@H]4[C@H](C)CC[C@@H]1[C@@]24OO3
0.661 s⁻¹

Please give measured koff of the following entry: COc1cc(/C=C/C(=O)CC(=O)/C=C/c2ccc(O)c(OC)c2)ccc1O
0.0122 s⁻¹

* * *

Overview of reported Kd across a group of molecules:
# measured on: SARS-CoV-2 RBD peptide (Severe acute respiratory syndrome coronavirus 2, UniProt P0DTC2)
# test: biochemical
# Assay type: binding
# assay conditions: RBD KD (M)
Record the value in M, omitting the unit from your answer.

Please give measured Kd of the following entry: OC(c1cc(C(F)(F)F)nc2c(C(F)(F)F)cccc12)C1CCCCN1 (stereo not drawn) [Mefloquine]
0.00605

Others:
Please give measured Kd of the following entry: COc1ccc2nc3cc(Cl)ccc3c(Nc3cc(CN4CCCC4)c(O)c(CN4CCCC4)c3)c2n1 [Pyronaridine]
5.68e-05

Please give measured Kd of the following entry: C[C@H]1[C@H](N2CCS(=O)(=O)CC2)O[C@@H]2O[C@@]3(C)CC[C@H]4[C@H](C)CC[C@@H]1[C@@]24OO3 [Artemisone]
3.63e-07
